Record form. Attribute: Maximum OD450 value. Fill in for each entry.
target: T1, human EGFRvIII-hFc protein (human, UniProt P00533 25-645); assay: ELISA, EGFRvIII-hFc coated
T1 construct: extracellular domain; also called immunogen A; hFc-tagged EGFRvIII protein; not shown: human IgG Fc fragment (hFc) of the pCpC vector
State just the number; it will be interpreted in OD450.

Which Maximum OD450 value reading was recorded for the binder Humanized antibody h63A10A7-22 (antibody, human IgG1, V domains shown, also called VH-g4/VL-g3) VH: QVQLVQSGAEVKKPGASVKVSCKASGYTFISFTMHWVKQRPGQGLEWIGYINPNSGYTKYNQKFKDKATLTRDTSTSTVYMELSSLRSEDTAVYYCTRGGGRGFAYWGQGTLVTVSS VL: DIQMTQSPSSLSASVGDRVTITCHASQDINSNIGWLQQKPGKSFKALIYHGTNLEDGVPSRFSGSGSGADYTLTISSLQPEDFATYYCVQYAQFPFTFGQGTKLEIK ?
3.57

Lookup Humanized antibody h63A10A7-26 (antibody, human IgG1, V domains shown, also called VH-g4/VL-g8) VH: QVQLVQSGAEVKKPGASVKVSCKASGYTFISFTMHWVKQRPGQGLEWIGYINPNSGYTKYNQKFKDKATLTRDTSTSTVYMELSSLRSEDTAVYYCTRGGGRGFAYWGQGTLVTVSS VL: DILMTQSPSSLSASVGDRVTITCHASQDINSNIGWYQQKPGKSFKALIYHGTNLEDGVPSRFSGSGSGADFTLTISSLQPEDFATYYCVQYAQFPFTFGQGTKLEIK
3.65

Lookup Humanized antibody h75G7C6-12 (antibody, human IgG1, V domains shown, also called VH-g1/VL-g3) VH: QVQLVQSGAEVKKPGASVKVSCKASGYTFTDYNMDWVRQAPGQGLEWIGDINPNNADTIYNQKFKGRVTLTVDTSTSTVYMELSSLRSEDTAVYYCARGDYDGYYPVYYAMDYWGQGTTVTVSS VL: ENVLTQSPATLSLSPGERATLSCRASSSVSSSYLHWYQQKPGQSPRLLIFSTSNLAAGVPARFSGSGSGTDYTLTISSLEPEDFAVYYCQQYSGYPLTFGGGTKVEIK
2.73
